- Measured On: HCV NS3/4A protease complexes (full-length hepatitis C NS3 protease enzyme with NS4A cofactor) (Hepatitis C virus genotype 1a)
- Sequence (P27958 1027-1657, other chains not shown): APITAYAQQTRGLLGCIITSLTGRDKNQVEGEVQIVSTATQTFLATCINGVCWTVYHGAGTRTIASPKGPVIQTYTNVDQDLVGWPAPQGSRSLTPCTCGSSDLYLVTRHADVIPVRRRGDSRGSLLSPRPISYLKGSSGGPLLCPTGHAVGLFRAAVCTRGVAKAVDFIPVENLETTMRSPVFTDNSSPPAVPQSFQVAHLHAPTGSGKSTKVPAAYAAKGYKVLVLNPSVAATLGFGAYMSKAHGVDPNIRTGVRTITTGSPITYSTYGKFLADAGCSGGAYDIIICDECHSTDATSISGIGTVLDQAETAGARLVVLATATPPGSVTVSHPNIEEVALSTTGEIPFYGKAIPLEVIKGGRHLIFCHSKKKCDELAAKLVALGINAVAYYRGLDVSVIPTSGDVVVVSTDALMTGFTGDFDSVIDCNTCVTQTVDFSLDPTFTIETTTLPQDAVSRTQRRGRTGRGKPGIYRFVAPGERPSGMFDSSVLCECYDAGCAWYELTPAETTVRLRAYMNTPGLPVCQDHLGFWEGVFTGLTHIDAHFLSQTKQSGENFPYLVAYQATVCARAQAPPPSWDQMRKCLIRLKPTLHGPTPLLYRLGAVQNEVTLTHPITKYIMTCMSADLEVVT
- Test Details: Inhibition assay (enzymatic assay, depsipeptide substrate hydrolysis)
- Type: biochemical
- Test Context: enzyme 1 nM, 25 μM NS4A cofactor, 0.5 μM substrate, 30° C., competitive inhibition model
- Description: The aim of this in vitro assay is to measure the inhibition of HCV NS3/4A protease complexes by the compounds of the present invention. This assay provides an indication of how effective compounds of the present invention would be in inhibiting HCV NS3/4A proteolytic activity. The inhibition of full-length hepatitis C NS3 protease enzyme was measured essentially as described in Poliakov, 2002 Prot Expression & Purification 25 363 371. […]
Parameter Measured: Ki

// worked examples, Ki included
>>> measured_result("CC(C)Nc1nccc(O[C@@H]2C[C@H]3C(=O)N[C@]4(C(=O)NS(=O)(=O)C5CC5)C[C@H]4/C=C\\CCCCN(C)C(=O)[C@@H]3C2)n1 [Example 12]")
"5 to 99.9 nM"
>>> measured_result("CN1CCCC/C=C\\[C@@H]2C[C@@]2(C(=O)NS(=O)(=O)C2CC2)NC(=O)[C@@H]2C[C@@H](Oc3ccnc(N4CCOCC4)n3)C[C@H]2C1=O [Example 11]")
"5 to 99.9 nM"
>>> measured_result("CN1CCCCC=CC2CC2(C(=O)NS(=O)(=O)C2CC2)NC(=O)C2CC(Oc3cc(-c4ccccc4)nc(-c4ccccc4)n3)CC2C1=O (stereo not shown) [Example 17]")
"0.1 to 4.9 nM"
>>> measured_result("COc1cc(OC2CC3C(=O)NC4(C(=O)NS(=O)(=O)C5CC5)CC4C=CCCCCCNC(=O)N3C2)nc(-c2ccccc2)n1 (stereo not shown) [Example 6]")
"0.1 to 4.9 nM"
>>> measured_result("COc1nc(OC2CC3C(=O)NC4(C(=O)NS(=O)(=O)C5CC5)CC4C=CCCCCCNC(=O)N3C2)cc(-c2ccccc2)n1 (stereo not shown) [Example 2]")
"0.1 to 4.9 nM"
>>> measured_result("COc1cc(OC2CC3C(=O)NC4(C(=O)NS(=O)(=O)C5(C)CC5)CC4C=CCCCCN(C)C(=O)C3C2)nc(-c2ccccc2)n1 (stereo not shown) [Example 7]")
"0.1 to 4.9 nM"

# input for lookup
Exercise: Query Ki for CN1CCCCC=CC2CC2(C(=O)NS(=O)(=O)C2CC2)NC(=O)C2CC(Oc3ccnc(-c4ccccc4)n3)CC2C1=O (stereo not shown) [Example 10]
Solution: > 1000 nM
